Target: δ opioid receptor (Rattus norvegicus)
Construct: Male Sprague-Dawley rats (300-350 g) from the Canadian Breeding Laboratories were decapitated and after removal of the cerebellum the brains were homogenized; from tissue; host or cells: rat brain (without cerebellum) membranes, male Sprague-Dawley
Sequence (P33533 whole entry): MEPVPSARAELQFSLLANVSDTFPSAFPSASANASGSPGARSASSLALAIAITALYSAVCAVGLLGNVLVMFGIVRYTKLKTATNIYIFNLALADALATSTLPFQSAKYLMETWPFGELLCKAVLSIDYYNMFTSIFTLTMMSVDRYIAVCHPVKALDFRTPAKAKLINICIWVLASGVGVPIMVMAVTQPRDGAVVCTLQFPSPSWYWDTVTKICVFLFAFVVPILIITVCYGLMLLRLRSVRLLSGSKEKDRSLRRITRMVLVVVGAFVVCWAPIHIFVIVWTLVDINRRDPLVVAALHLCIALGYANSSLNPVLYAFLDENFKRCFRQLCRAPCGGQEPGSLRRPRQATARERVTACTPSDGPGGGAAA
Procedure Details: δ opioid receptor binding assay, displacement of δ-selective radioligand from rat brain membranes
Conditions Used: δ-selectivity ratio
Peptide text beside a SMILES is read from it.
# if measured Ki^μ /Ki^δ < 5000: condition met  # else: condition not met

{"Compound": "N[C@@H](Cc1ccc(O)cc1)C(=O)N1Cc2ccccc2C[C@H]1C(=O)N[C@@H](Cc1ccc2ccccc2c1)C(=O)N[C@@H](Cc1ccccc1)C(=O)O [HTyrTic-2-NalPheOH, H-Tyr-Tic-2-Nal-Phe-OH] (HELM PEPTIDE1{Y.[Tic].[O=C([C@H](Cc1ccc2ccccc2c1)N[*:1])[*:2]].F}$$$$V2.0)", "Group": "condition met"}
{"Compound": "N[C@@H](Cc1ccc(O)cc1)C(=O)N1Cc2ccccc2C[C@H]1C(=O)N[C@H](C(=O)N[C@@H](Cc1ccccc1)C(=O)O)c1ccccc1 [HTyrTicPhgPheOH, H-Tyr-Tic-Phg-Phe-OH] (HELM PEPTIDE1{Y.[Tic].[Phg].F}$$$$V2.0)", "Group": "condition not met"}
{"Compound": "NC(=O)[C@H](Cc1c[nH]c2ccccc12)NC(=O)[C@H](Cc1ccccc1)NC(=O)[C@@H]1Cc2ccccc2CN1C(=O)[C@@H](N)Cc1ccc(O)cc1 [HTyrTicPheTrpNH2, H-Tyr-Tic-Phe-Trp-NH2] (HELM PEPTIDE1{Y.[Tic].F.W.[am]}$$$$V2.0)", "Group": "condition met"}
{"Compound": "NC(=O)[C@H](Cc1ccccc1)NC(=O)[C@H](Cc1c[nH]c2ccccc12)NC(=O)[C@@H]1Cc2ccccc2CN1C(=O)[C@@H](N)Cc1ccc(O)cc1 [HTyrTicTrpPheNH2, H-Tyr-Tic-Trp-Phe-NH2] (HELM PEPTIDE1{Y.[Tic].W.F.[am]}$$$$V2.0)", "Group": "condition met"}
{"Compound": "N[C@@H](Cc1ccc(O)cc1)C(=O)N1Cc2ccccc2C[C@H]1C(=O)N[C@@H](Cc1c[nH]c2ccccc12)C(=O)N[C@@H](Cc1ccccc1)C(=O)O [HTyrTicTrpPheOH, H-Tyr-Tic-Trp-Phe-OH] (HELM PEPTIDE1{Y.[Tic].W.F}$$$$V2.0)", "Group": "condition not met"}
{"Compound": "N[C@@H](Cc1ccc(O)cc1)C(=O)N1Cc2ccccc2C[C@H]1C(=O)N[C@@H](Cc1c[nH]cn1)C(=O)N[C@@H](Cc1ccccc1)C(=O)O [HTyrTicHisPheOH, H-Tyr-Tic-His-Phe-OH] (HELM PEPTIDE1{Y.[Tic].H.F}$$$$V2.0)", "Group": "condition not met"}
{"Compound": "N[C@@H](Cc1ccc(O)cc1)C(=O)N1Cc2ccccc2C[C@H]1C(=O)N[C@@H](CCc1ccccc1)C(=O)N[C@@H](Cc1ccccc1)C(=O)O [HTyrTicHfePheOH, H-Tyr-Tic-Hfe-Phe-OH] (HELM PEPTIDE1{Y.[Tic].[O=C([C@H](CCc1ccccc1)N[*:1])[*:2]].F}$$$$V2.0)", "Group": "condition not met"}

----------
Target: δ opioid receptors (Mus musculus, UniProt P32300)
Construct: Bioassays Using Isolated Organ Preparations; from tissue; host or cells: mouse vas deferens (isolated organ)
Sequence (P32300 whole entry): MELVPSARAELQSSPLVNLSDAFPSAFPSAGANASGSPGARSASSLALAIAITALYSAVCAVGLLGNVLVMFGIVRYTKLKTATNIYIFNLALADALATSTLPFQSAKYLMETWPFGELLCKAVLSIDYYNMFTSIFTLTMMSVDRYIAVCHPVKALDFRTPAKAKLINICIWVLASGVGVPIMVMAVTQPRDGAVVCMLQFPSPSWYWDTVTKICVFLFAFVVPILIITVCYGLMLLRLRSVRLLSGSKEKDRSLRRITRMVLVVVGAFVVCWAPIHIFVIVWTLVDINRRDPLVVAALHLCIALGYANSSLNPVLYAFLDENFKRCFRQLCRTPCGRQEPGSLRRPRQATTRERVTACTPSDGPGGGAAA
Procedure Details: Mouse vas deferens (MVD) bioassay, antagonism of electrically evoked contraction inhibition by δ-selective agonists
Format: tissue-based
Conditions Used: Ke (nM) against [D-Ala2]deltorphin I, MVD assay; δ agonist [D-Ala2]deltorphin I; means of 3-8 determinations
Peptide text beside a SMILES is read from it.
// reported Kb per item

{"Molecule": "CN[C@@H](Cc1ccc(O)cc1)C(=O)N1Cc2ccccc2C[C@H]1C(=O)N[C@@H](Cc1ccccc1)C(=O)N[C@@H](Cc1ccccc1)C(=O)O [Tyr(N^α Me)-TicPhePheOH, Tyr(N^α Me)-Tic-Phe-Phe-OH] (HELM PEPTIDE1{[meY].[Tic].F.F}$$$$V2.0)", "Kb, nM": 0.436}
{"Molecule": "CC(C)[C@H](NC(=O)[C@H](Cc1ccccc1)NC(=O)[C@H](Cc1ccccc1)NC(=O)[C@@H]1Cc2ccccc2CN1C(=O)[C@@H](N)Cc1ccc(O)cc1)C(=O)N[C@H](C(=O)NCC(N)=O)C(C)C [HTyrTicPhePheValValGlyNH2, H-Tyr-Tic-Phe-Phe-Val-Val-Gly-NH2] (HELM PEPTIDE1{Y.[Tic].F.F.V.V.G.[am]}$$$$V2.0)", "Kb, nM": 4.96}
{"Molecule": "NC(=O)[C@H](CO)NC(=O)[C@@H]1CCCN1C(=O)[C@H](Cc1ccc(O)cc1)NC(=O)[C@H](Cc1ccccc1)NC(=O)[C@H](Cc1ccccc1)NC(=O)[C@@H]1Cc2ccccc2CN1C(=O)[C@@H](N)Cc1ccc(O)cc1 [HTyrTicPhePheTyrProSerNH2, H-Tyr-Tic-Phe-Phe-Tyr-Pro-Ser-NH2] (HELM PEPTIDE1{Y.[Tic].F.F.Y.P.S.[am]}$$$$V2.0)", "Kb, nM": 3.9}

----------
In this section we review reported Kb values for a set of compounds.
Target: δ opioid receptors (Mus musculus, UniProt P32300)
Construct: Bioassays Using Isolated Organ Preparations; from tissue; host or cells: mouse vas deferens (isolated organ)
Procedure Details: Mouse vas deferens (MVD) bioassay, antagonism of electrically evoked contraction inhibition by δ-selective agonists
Type: tissue-based
Conditions Used: Ke (nM) against [Leu5]Enkephalin, MVD assay; δ agonist [Leu5]enkephalin; means of 3-8 determinations
Peptide text beside a SMILES is read from it.
Property: Kb (nM)

{"Compound": "NC(=O)[C@H](CO)NC(=O)[C@@H]1CCCN1C(=O)[C@H](Cc1ccc(O)cc1)NC(=O)[C@H](Cc1ccc([N+](=O)[O-])cc1)NC(=O)[C@H](Cc1c[nH]c2ccccc12)NC(=O)[C@@H]1Cc2ccccc2CN1C(=O)[C@@H](N)Cc1ccc(O)cc1 [HTyrTicTrpPhe(pNO2)TyrProSerNH2] (HELM PEPTIDE1{Y.[Tic].W.[O=C([C@H](Cc1ccc([N+](=O)[O-])cc1)N[*:1])[*:2]].Y.P.S.[am]}$$$$V2.0)", "Target": "δ opioid receptors (Mus musculus, UniProt P32300)", "Display Unit": "nM", "Reported": 3.68}
{"Compound": "N[C@@H](Cc1ccc(O)cc1)C(=O)N1Cc2ccccc2C[C@H]1C(=O)N[C@@H](Cc1ccccc1)C(=O)N[C@@H](Cc1ccc([N+](=O)[O-])cc1)C(=O)O [HTyrTicPhePhe(pNO2)OH, H-Tyr-Tic-Phe-Phe(pNO2)-OH] (HELM PEPTIDE1{Y.[Tic].F.[O=C(O)[C@H](Cc1ccc([N+](=O)[O-])cc1)N[*:1]]}$$$$V2.0)", "Target": "δ opioid receptors (Mus musculus, UniProt P32300)", "Display Unit": "nM", "Reported": 3.62}
{"Compound": "CC(C)[C@H](NC(=O)[C@H](Cc1ccccc1)NC(=O)[C@H](Cc1ccccc1)NC(=O)[C@@H]1Cc2ccccc2CN1C(=O)[C@@H](N)Cc1ccc(O)cc1)C(=O)N[C@H](C(=O)NCC(N)=O)C(C)C [HTyrTicPhePheValValGlyNH2, H-Tyr-Tic-Phe-Phe-Val-Val-Gly-NH2] (HELM PEPTIDE1{Y.[Tic].F.F.V.V.G.[am]}$$$$V2.0)", "Target": "δ opioid receptors (Mus musculus, UniProt P32300)", "Display Unit": "nM", "Reported": 6.48}
{"Compound": "O=C(O)[C@H](Cc1ccccc1)NC(=O)[C@H](Cc1ccccc1)NC(=O)[C@@H]1Cc2ccccc2CN1C(=O)[C@H](Cc1ccc(O)cc1)NCC1CC1 [Tyr(N^α Cpm)-TicPhePheOH, Tyr(N^α Cpm)-Tic-Phe-Phe-OH]", "Target": "δ opioid receptors (Mus musculus, UniProt P32300)", "Display Unit": "nM", "Reported": 29.6}

----------
Below, each entry is listed with its recorded Kb.
Target: δ opioid receptors (Mus musculus, UniProt P32300)
Construct: Bioassays Using Isolated Organ Preparations; from tissue; host or cells: mouse vas deferens (isolated organ)
Procedure Details: Mouse vas deferens (MVD) bioassay, antagonism of electrically evoked contraction inhibition by δ-selective agonists
Type: tissue-based
Conditions Used: Ke (nM) against [Leu5]Enkephalin, MVD assay; δ agonist [Leu5]enkephalin; means of 3-8 determinations
Peptide text beside a SMILES is read from it.
Property: Kb (nM)

{"Compound": "N[C@@H](Cc1ccc(O)c(Br)c1)C(=O)N1Cc2ccccc2C[C@H]1C(=O)N[C@@H](Cc1ccccc1)C(=O)N[C@@H](Cc1ccccc1)C(=O)O [HTyr(3-Br)TicPhePheOH, H-Tyr(3-Br)-Tic-Phe-Phe-OH] (HELM PEPTIDE1{[N[C@@H](Cc1ccc(O)c(Br)c1)C(=O)[*:2]].[Tic].F.F}$$$$V2.0)", "Reported": 18.2}
{"Compound": "N[C@@H](Cc1ccc(O)c(F)c1)C(=O)N1Cc2ccccc2C[C@H]1C(=O)N[C@@H](Cc1ccccc1)C(=O)N[C@@H](Cc1ccccc1)C(=O)O [HTyr(3-F)TicPhePheOH, H-Tyr(3-F)-Tic-Phe-Phe-OH] (HELM PEPTIDE1{[N[C@@H](Cc1ccc(O)c(F)c1)C(=O)[*:2]].[Tic].F.F}$$$$V2.0)", "Reported": 5.88}
{"Compound": "N[C@@H](Cc1ccc(O)cc1)C(=O)N1Cc2ccccc2C[C@H]1C(=O)N[C@@H](CCc1ccccc1)C(=O)N[C@@H](Cc1ccccc1)C(=O)O [HTyrTicHfePheOH, H-Tyr-Tic-Hfe-Phe-OH] (HELM PEPTIDE1{Y.[Tic].[O=C([C@H](CCc1ccccc1)N[*:1])[*:2]].F}$$$$V2.0)", "Reported": 1.23}
{"Compound": "N[C@@H](Cc1ccc(O)cc1)C(=O)N1Cc2ccccc2C[C@H]1C(=O)N[C@@H](Cc1c[nH]c2ccccc12)C(=O)N[C@@H](Cc1ccccc1)C(=O)O [HTyrTicTrpPheOH, H-Tyr-Tic-Trp-Phe-OH] (HELM PEPTIDE1{Y.[Tic].W.F}$$$$V2.0)", "Reported": 2.37}
{"Compound": "CCCC[C@H](NC(=O)[C@H](CC(C)C)NC(=O)[C@H](Cc1ccccc1)NC(=O)[C@H](Cc1ccccc1)NC(=O)[C@@H]1Cc2ccccc2CN1C(=O)[C@@H](N)Cc1ccc(O)cc1)C(=O)N[C@@H](CC(=O)O)C(N)=O [HTyrTicPhePheLeuNleAspNH2, H-Tyr-Tic-Phe-Phe-Leu-Nle-Asp-NH2] (HELM PEPTIDE1{Y.[Tic].F.F.L.[Nle].D.[am]}$$$$V2.0)", "Reported": 21.4}
{"Compound": "NC(=O)[C@H](Cc1c[nH]c2ccccc12)NC(=O)[C@H](Cc1ccccc1)NC(=O)[C@@H]1Cc2ccccc2CN1C(=O)[C@@H](N)Cc1ccc(O)cc1 [HTyrTicPheTrpNH2, H-Tyr-Tic-Phe-Trp-NH2] (HELM PEPTIDE1{Y.[Tic].F.W.[am]}$$$$V2.0)", "Reported": 49.5}
{"Compound": "N[C@@H](Cc1ccc(O)cc1)C(=O)N1Cc2ccccc2C[C@H]1CN[C@@H](CCc1ccccc1)C(=O)N[C@@H](Cc1ccccc1)C(=O)O [HTyrTic.psi.[CH2NH]HfePheOH, H-Tyr-Tic-.PSI.[CH2 --NH]Hfe-Phe-OH]", "Reported": 2.22}
